Target: T1, Human GHR-Fc-10x His (extracellular region of human growth hormone receptor fused to human Fc) (human, UniProt P10912 50-256)
T1 construct: Captured by its 10x His-tag on a Ni-NTA sensor chip for SPR; not shown: human Fc domain of vector pAB1200 with its linker; 10x His-tag replacing the AviTag
T1 sequence (looked up): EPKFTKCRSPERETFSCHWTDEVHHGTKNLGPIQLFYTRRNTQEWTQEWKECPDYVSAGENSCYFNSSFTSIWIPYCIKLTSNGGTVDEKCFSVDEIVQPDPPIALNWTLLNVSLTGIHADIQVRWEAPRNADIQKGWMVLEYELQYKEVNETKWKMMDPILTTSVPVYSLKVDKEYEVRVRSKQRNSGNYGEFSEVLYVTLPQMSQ
Assay: SPR, GHR-Fc-10xHis captured on Ni-NTA chip, Fab as analyte, 1:1 fit
propertyLabel: koff (s⁻¹)

binder="GHR8 Fab (Fab, V domains shown, Fab) VH: EVQLVESGGGLVQPGGSLRLSCAASGFNISYSSIHWVRQAPGKGLEWVASIYSSYGSTYYADSVKGRFTISADTSKNTAYLQMNSLRAEDTAVYYCARSYIYSQPGFYYDSYALDYWGQGTLVTVSS VL: DIQMTQSPSSLSASVGDRVTITCRASQSVSSAVAWYQQKPGKAPKLLIYSASSLYSGVPSRFSGSRSGTDFTLTISSLQPEDFATYYCQQYGSWLITFGQGTKVEIKR" units=s⁻¹ observed=0.000505
binder="GHR4 Fab (Fab, V domains shown, Fab; also called FAB4) VH: EVQLVESGGGLVQPGGSLRLSCAASGFNVYYSYIHWVRQAPGKGLEWVAYISPYSGSTSYADSVKGRFTISADTSKNTAYLQMNSLRAEDTAVYYCARQEWYAFDYWGQGTLVTVSS VL: DIQMTQSPSSLSASVGDRVTITCRASQSVSSAVAWYQQKPGKAPKLLIYSASSLYSGVPSRFSGSRSGTDFTLTISSLQPEDFATYYCQQYWSYLITFGQGTKVEIKR" units=s⁻¹ observed=0.000992
binder="GHR15 Fab (Fab, V domains shown, Fab) VH: EVQLVESGGGLVQPGGSLRLSCAASGFNVSSSSIHWVRQAPGKGLEWVASIYSYYGYTSYADSVKGRFTISADTSKNTAYLQMNSLRAEDTAVYYCARSSGYHGWYWNGMDYWGQGTLVTVSS VL: DIQMTQSPSSLSASVGDRVTITCRASQSVSSAVAWYQQKPGKAPKLLIYSASSLYSGVPSRFSGSRSGTDFTLTISSLQPEDFATYYCQQWYGMSLVTFGQGTKVEIKR" units=s⁻¹ observed=0.000131
binder="GHR7 Fab (Fab, V domains shown, Fab) VH: EVQLVESGGGLVQPGGSLRLSCAASGFNFSYSSIHWVRQAPGKGLEWVAYISSYYGYTSYADSVKGRFTISADTSKNTAYLQMNSLRAEDTAVYYCARLQHPSWYYYQGYHSGMDYWGQGTLVTVSS VL: DIQMTQSPSSLSASVGDRVTITCRASQSVSSAVAWYQQKPGKAPKLLIYSASSLYSGVPSRFSGSRSGTDFTLTISSLQPEDFATYYCQQYWSSLITFGQGTKVEIKR" units=s⁻¹ observed=0.00129
